src = patent US20220153834A1

- Test System: T1, Recombinant human TSG-6 (R&D Biosystems, catalog #2104-TS) (human, UniProt P98066 18-277)
- T1 construct: Bought protein; also called hTSG-6; Tumor necrosis factor-inducible gene 6 protein
- T1 sequence (P98066 18-277 limits assumed): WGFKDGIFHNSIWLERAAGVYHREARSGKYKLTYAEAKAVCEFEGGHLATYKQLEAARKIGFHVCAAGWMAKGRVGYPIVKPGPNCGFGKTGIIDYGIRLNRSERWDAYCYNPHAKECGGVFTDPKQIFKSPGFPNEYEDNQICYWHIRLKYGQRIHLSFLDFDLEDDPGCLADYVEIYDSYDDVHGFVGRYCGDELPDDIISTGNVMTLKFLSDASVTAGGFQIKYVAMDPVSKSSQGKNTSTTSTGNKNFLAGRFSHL
- Run Description: ELISA of hybridoma supernatants on recombinant human TSG-6
- Experimental: Mouse antibodies directed against mouse TSG-6 protein (mTSG-6) were generated using conventional mouse monoclonal antibody techniques. Briefly, mice (strain SJL/J) were inoculated with KLH-coupled recombinant mouse TSG-6 (R&D Biosystems, catalog #2326-TS). After boosting, antibody titers were determined by ELISA, using a non-relevant His6-tagged protein as a control. […]
Measured Quantity: binding result

INSERT INTO results (binder, reading) VALUES
  ('5B4 (antibody, V domains shown, Its printed constant part differs from that of the other IgG1 entries; Entries as printed include a leader and part of the constant region) VH: QVQLQQPGAELVKPGASVKLSCKASDYTFTNYWMHWVKQRPGRGLEWIGRIDPSSGGAKYNEKFKSKATLTVDKPSSTAYMEFSSLTSEDSAVYYCVRSRYDYDGWFAYWGLGTLVTVSA VL: DIVMTQAAPSVPVTPGESVSISCRSSKSLLHSNGNTYLYWFLQRPGQSPQLLIYRMSNLASGVPDRFSGSGSGTAFTLRISRVEAEDVGVYYCMQHLEYPFTFGGGTKLEIKR', 'binds'),
  ('1D7 (antibody, V domains shown, Entries as printed include a leader and part of the constant region) VH: EVQLQQSGPELVKPGASVKISCKASGYTFTDYYMNWVKQSHGKSLEWIGDINPNNGGTTYNQKFKGKATLTVDKSSSTAYMELRSLTSEDSAVYYCARWGIFDRFTYWGQGTVVTVSA VL: DIKMTQSPSSMYASRGERVTITCKASQDINSFLSWFQQKPGKSPKTLIYRANRLVDGVPSRFSGSGSGQDYSLTISSLEYEDMGIYYCLQYDEFPLTFGAGTKLELKR', 'binds'),
  ('1A9 (antibody, V domains shown, Entries as printed include a leader and part of the constant region) VH: EVQLQQSGPELVKPGASVKISCKASGYTFTDYYMNWVKQSHEKSLEWIGDINPNNGGTSYNQKFMGKATLTVDKSSRTAYMELRSLTSEDSTVYYCARWGIYDRFTYWGQGTLVSVSA VL: DIKMTQSPSSMYASLGERVTIACKASQDINSFLSWFQQKPGKSPKTLIYRANRLVDGVPSRFSGSGSGQDYSLTISSLEYEDMGIYYCLQYDEFPLTFGAGTKLELKR', 'binds');
